study.system: HLA-DRB1*0401 (Homo sapiens (Human), UniProt P01903+P01911, A100K/A169T/DEL228-266/F76Y/I96L/K127E/L162R/M171V/N62H/P40V/Q125Y/R42H/S133A/S149N/S66Y/V115G/V209L/W38E)
method.description: HLA-DR4 HTRF assay
test.parameters: inhibition of loading of Alexa Fluor 647-labeled Cit-CII peptide onto HLA-DR4 (CLIP cleaved)
Description: The screening was made through two sets of HLA-DR/peptide-dependent assays: a peptide-dependent Homogeneous Time Resolved Fluorescence (HTRF) binding assay followed by an HLA-DR dependent, peptide-specific T cell functional assay (HLA-DR4-restricted peptide-specific T cell-based assay hybridoma assay). The HTRF binding assay was designed to measure the ability of the small molecule to inhibit the loading of a fluorescently labeled high-affinity peptide onto HLA-DR peptide binding groove. […]
Criterion: IC50 strictly under 1000 nM. Met: Y. Not met: N.

Completed entries (count: 5):
                                   molecule  category_label
0  NC(=O)c1ccc([C@@H](Oc2ccc3c(c2)OCCC3=O)c2ccnc3ccccc23)cc1 (single isomer, unassigned) [Example 22a]               N
1  O=C1CCOc2cc(O[C@@H](c3ccncc3)c3ccc(F)cc3)ccc21 (single isomer, unassigned)               N
2  CC1(C)COc2cc(O[C@H](c3ccncc3)c3ccc(C(N)=O)cc3)ccc2C1=O (single isomer, unassigned) [Example 56b]               N
3  NC(=O)c1ccc([C@@H](Oc2ccc3c(c2Br)OCCC3=O)c2ccncc2)cc1 (single isomer, unassigned) [Example 102a]               N
4  NC(=O)c1ccc([C@@H](Oc2cc3c(cc2-c2ccccc2)C(=O)CCO3)c2ccncc2)cc1 (single isomer, unassigned) [Example 54a]               Y

In: Say whether its IC50 is strictly beneath 1000 nM. Entry: Cc1c(O[C@H](c2ccc(C(N)=O)cc2)c2cccc(F)c2)ccc2c1OCCC2=O (single isomer, unassigned) [Example 67a]
Out: N

----------
study.system: HLA-DRB1*0401 (Homo sapiens (Human), UniProt P01903+P01911, A100K/A169T/DEL228-266/F76Y/I96L/K127E/L162R/M171V/N62H/P40V/Q125Y/R42H/S133A/S149N/S66Y/V115G/V209L/W38E)
method.description: HLA-DR4 HTRF assay
test.parameters: inhibition of loading of Alexa Fluor 647-labeled Cit-CII peptide onto HLA-DR4 (CLIP cleaved)
pIC50: −log10 of the molar value.
Cut-off 6 on pIC50, inclusive. At or above means Yes; below means No.

                                   molecule  category_label
0  Cc1cc([C@@H](Oc2ccc3c(c2C)OC(C)(C)CC3=O)c2ccc(C(N)=O)cc2)cc(C)n1 (single isomer, unassigned) [Example 112b]             Yes
1  NC(=O)c1ccc([C@@H](Oc2ccc3c(c2)OCCC3=O)c2ccncc2)c2ccccc12 (single isomer, unassigned) [Example 98b]              No

In: # check: pIC50 of NC(=O)c1ccc([C@H](Oc2cc3c(cc2F)C(=O)CCO3)c2ccncc2)cc1 (single isomer, unassigned) [Example 52b] is greater than or equal to 6
Out: Yes
